molecular target: T1, human DLL4 (human, UniProt Q9NR61 27-524, limits assumed); assay: monoclonal phage ELISA on hDLL4, with HSA as control antigen, OD450
T1 construct: Antigen of the monoclonal phage ELISA; also called hDLL4
T1 sequence (Q9NR61 27-524 limits assumed): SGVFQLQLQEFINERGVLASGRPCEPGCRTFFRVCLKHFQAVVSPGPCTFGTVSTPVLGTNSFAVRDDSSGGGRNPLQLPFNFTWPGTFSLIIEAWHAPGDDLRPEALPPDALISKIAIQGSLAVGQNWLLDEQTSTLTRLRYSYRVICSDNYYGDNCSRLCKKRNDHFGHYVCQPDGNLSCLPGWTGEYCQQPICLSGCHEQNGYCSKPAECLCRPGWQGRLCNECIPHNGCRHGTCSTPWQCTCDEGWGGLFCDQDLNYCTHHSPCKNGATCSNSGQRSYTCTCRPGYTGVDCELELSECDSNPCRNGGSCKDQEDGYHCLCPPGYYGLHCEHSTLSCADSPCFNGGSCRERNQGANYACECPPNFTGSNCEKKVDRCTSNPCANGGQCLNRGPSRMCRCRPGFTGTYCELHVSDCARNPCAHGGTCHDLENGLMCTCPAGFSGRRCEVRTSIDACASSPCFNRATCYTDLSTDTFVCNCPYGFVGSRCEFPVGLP

Binder	binding result
E4V2D10 (VNAR, Clone from the E4-V2 humanised library) VNAR: ASVNQSPSSLSASVGDRVTITCVLTGAGYWFATSWFRKNPGTSDKESISNSGRYVESVNKRSMSFTLTISSLQPEDFATYYCRAWTSFEEQVKDVYGGGTKVEIK	binds
E4V2F3 (VNAR, Clone from the E4-V2 humanised library) VNAR: ASVNQSPSSLSASVGDRVTITCVLTDTNYWYSTSWFRKNPGTTNEDRIIISGRYVESVNNGPKSFTLTISSLQPEDFATYYCRAWTSFEEQVKDVYGGGTKVEIK	binds
E4V2Ee8 (VNAR, Clone from the E4-V2 humanised library) VNAR: ASVNQSPSSLSASVGDRVTITCVLTGASYWYSTSWFRKNPGTTDEESMSNGGRYVESVNKRPMSFTLTISSLQPEDFATYYCRAWTSFEEQVKDVYGGGTKVEIK	binds
